readout: melting point

Some molecules with known melting point results, for comparison:
Task item: Item under review: COc1ccc2c(=O)n(-c3ccc(F)cc3F)c(=O)oc2c1 [compound 4d] . Reported melting point?
Reply: 138 to 139 °C

Task item: Tell me the measured melting point of COc1ccccc1C(=O)Nc1ccc(F)cc1F [compound 3b] , please.
Reply: 86 to 87 °C

Task item: Name the recorded melting point for COc1ccc2c(=O)n(-c3ccc(Cl)cc3F)c(=O)oc2c1 [compound 2d] .
Reply: 203 to 204 °C

Task item: // query melting point value for entry O=C(Nc1ccc(F)cc1F)c1ccccc1OCc1ccc(F)cc1F [compound 3c]
Reply: 135 to 136 °C

---
Task item: If you can, please state the reported melting point value of COc1ccc(C(=O)Nc2ccc(Cl)cc2F)c(O)c1 [compound 2a] .
Reply: 186 to 187 °C

Task item: Name the reported melting point value associated with the molecule O=C(Nc1ccc(F)cc1F)c1ccccc1O [compound 3a]
Reply: 186 to 187 °C

Task item: Param item = O=C(Nc1ccc(Cl)cc1F)c1ccccc1O [compound 1a] ; retrieve measured melting point.
Reply: 184 to 185 °C

Task item: State the recorded melting point for this entry: COc1ccccc1C(=O)Nc1ccc(Cl)cc1F [compound 1b]
Reply: 111 to 112 °C

Task item: Which melting point is listed for COc1ccc(C(=O)Nc2ccc(Cl)cc2F)c(OCc2ccc(F)cc2F)c1 [compound 2c] ?
Reply: 134 to 135 °C

Task item: melting point for COc1ccc(C(=O)Nc2ccc(F)cc2F)c(O)c1 [compound 4a] ?
Reply: 180 to 181 °C

Where do the numbers come from? From patent US9018203B2.
